# TESTED SYSTEM: c-Met (Homo sapiens)
# Sequence (P08581 25-1390): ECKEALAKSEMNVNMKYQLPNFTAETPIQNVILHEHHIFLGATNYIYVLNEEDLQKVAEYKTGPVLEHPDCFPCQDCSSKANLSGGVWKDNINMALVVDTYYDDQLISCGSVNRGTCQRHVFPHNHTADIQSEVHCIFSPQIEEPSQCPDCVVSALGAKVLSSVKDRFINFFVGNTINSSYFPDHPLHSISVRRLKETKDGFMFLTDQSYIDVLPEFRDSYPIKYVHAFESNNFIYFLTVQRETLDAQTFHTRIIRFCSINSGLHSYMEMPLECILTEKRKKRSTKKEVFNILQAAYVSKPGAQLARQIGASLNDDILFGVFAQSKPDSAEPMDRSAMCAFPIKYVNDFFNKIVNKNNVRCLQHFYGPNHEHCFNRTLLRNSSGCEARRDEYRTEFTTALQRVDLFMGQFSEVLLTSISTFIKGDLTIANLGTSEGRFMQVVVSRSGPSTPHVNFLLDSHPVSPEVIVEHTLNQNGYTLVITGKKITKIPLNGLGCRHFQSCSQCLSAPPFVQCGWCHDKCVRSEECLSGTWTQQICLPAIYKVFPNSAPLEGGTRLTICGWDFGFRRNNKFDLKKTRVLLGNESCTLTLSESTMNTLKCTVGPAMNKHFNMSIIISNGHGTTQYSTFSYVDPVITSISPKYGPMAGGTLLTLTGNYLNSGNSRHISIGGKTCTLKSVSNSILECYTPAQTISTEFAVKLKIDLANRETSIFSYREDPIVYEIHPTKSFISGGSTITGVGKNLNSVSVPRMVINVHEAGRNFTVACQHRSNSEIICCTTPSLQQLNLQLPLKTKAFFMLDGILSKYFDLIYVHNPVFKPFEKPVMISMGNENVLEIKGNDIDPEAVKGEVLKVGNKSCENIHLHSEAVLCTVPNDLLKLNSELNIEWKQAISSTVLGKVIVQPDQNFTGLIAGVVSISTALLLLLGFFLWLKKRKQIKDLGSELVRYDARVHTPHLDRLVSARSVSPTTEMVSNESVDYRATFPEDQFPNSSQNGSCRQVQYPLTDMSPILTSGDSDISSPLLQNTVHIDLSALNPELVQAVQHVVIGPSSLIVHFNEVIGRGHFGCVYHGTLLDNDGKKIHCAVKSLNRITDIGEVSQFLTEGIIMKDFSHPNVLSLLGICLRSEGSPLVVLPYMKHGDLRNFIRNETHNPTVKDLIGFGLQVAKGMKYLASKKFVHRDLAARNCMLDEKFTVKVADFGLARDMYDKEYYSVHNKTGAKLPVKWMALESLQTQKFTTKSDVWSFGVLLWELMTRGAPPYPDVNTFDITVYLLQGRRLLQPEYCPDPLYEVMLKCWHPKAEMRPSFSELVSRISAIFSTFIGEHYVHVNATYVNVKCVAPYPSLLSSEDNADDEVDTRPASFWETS
# ASSAY COMMENT: Ki determination for the inhibition of c-Met kinase activity (standard coupled enzyme system)
# Type: biochemical
# EXPERIMENTAL CONTEXT: coupled enzyme system, 200 μM ATP, 80 nM c-Met, 30° C.; read-out: c-Met Ki
What Ki was measured for each of the following?

(Q) Look up Ki for this compound: NC(=O)c1ccc(OCc2nnc3ccc(Nc4cccc(Cl)c4)nn23)cc1
(A) 100 to 2000 nM

(Q) Look up Ki for this compound: Fc1ccc(C2(c3nnc4ccc(Nc5cccc(Cl)c5)nn34)CCCC2)cc1
(A) > 2000 nM

(Q) Look up Ki for this compound: Oc1ccc2[nH]cc(Cc3nnc4ccc(Nc5cccc(Cl)c5)nn34)c2c1
(A) > 2000 nM

(Q) Look up Ki for this compound: COc1ccc(NCc2nnc3ccc(Nc4cccc(Cl)c4)nn23)c(O)c1
(A) 100 to 2000 nM

(Q) Look up Ki for this compound: Oc1ccccc1SCc1nnc2ccc(Nc3cccc(Cl)c3)nn12
(A) > 2000 nM

(Q) Look up Ki for this compound: COc1cc(OC)c(NCc2nnc3ccc(Nc4cccc(Cl)c4)nn23)cc1Cl
(A) > 2000 nM

(Q) Look up Ki for this compound: Oc1ccc(Cc2nnc3n2N=C(c2ccsc2)CS3)cc1
(A) < 100 nM

(Q) Look up Ki for this compound: O=C1NCCCCC1Nc1ccc2nnc(Cc3ccc(O)cc3)n2n1 (stereo not drawn)
(A) > 2000 nM

(Q) Look up Ki for this compound: COc1ccc(NCc2nnc3ccc(Nc4cccc(Cl)c4)nn23)cc1
(A) > 2000 nM

(Q) Look up Ki for this compound: NC(c1ccc(F)cc1)c1nnc2ccc(Nc3cccc(Cl)c3)nn12 (stereo not drawn)
(A) 100 to 2000 nM

(Q) Look up Ki for this compound: Oc1ccc(CCc2nnc3ccc(Nc4cccc(Cl)c4)nn23)cc1
(A) 100 to 2000 nM

(Q) Look up Ki for this compound: Cc1nnc(Nc2ccc3nnc([C@@H](C)c4ccc(O)cc4)n3n2)s1
(A) > 2000 nM

(Q) Look up Ki for this compound: OCCc1cccc(Nc2ccc3nnc(Cc4ccc5c(c4)OCO5)n3n2)c1
(A) 100 to 2000 nM

(Q) Look up Ki for this compound: COC(=O)c1ccc(NCc2nnc3ccc(Nc4cccc(Cl)c4)nn23)nc1
(A) 100 to 2000 nM

(Q) Look up Ki for this compound: CC(=O)N[C@@H]1CCCC[C@H]1Nc1ccc2nnc([C@@H](C)c3ccc(O)cc3)n2n1
(A) > 2000 nM

(Q) Look up Ki for this compound: Nc1cc(OCc2nnc3ccc(Nc4cccc(Cl)c4)nn23)c2ccccc2n1
(A) > 2000 nM

(Q) Look up Ki for this compound: Fc1ccc(Cc2nnc3ccc(Nc4cccc(Cl)c4)nn23)c(Cl)c1
(A) 100 to 2000 nM

(Q) Look up Ki for this compound: CCc1nnc(Nc2ccc3nnc([C@@H](C)c4ccc(O)cc4)n3n2)s1
(A) 100 to 2000 nM

(Q) Look up Ki for this compound: O=C(N[C@@H](Cc1ccccc1)C1=Nn2c(Cc3ccc(O)cc3)nnc2SC1)OCc1ccccc1
(A) > 2000 nM

(Q) Look up Ki for this compound: Clc1cccc(Nc2ccc3nnc(CNc4ncccn4)n3n2)c1
(A) > 2000 nM

(Q) Look up Ki for this compound: CCC(c1ccc(OC)cc1)c1nnc2ccc(Nc3cccc(Cl)c3)nn12 (stereo not drawn)
(A) < 100 nM

(Q) Look up Ki for this compound: C[C@H](c1ccc(O)cc1)c1nnc2ccc(Nc3cccc(Cl)c3)nn12
(A) < 100 nM

(Q) Look up Ki for this compound: COc1ccc(Cc2nnc3ccc(Nc4cccc(Cl)c4)nn23)c(Cl)c1
(A) < 100 nM

(Q) Look up Ki for this compound: Clc1cccc(Nc2ccc3nnc(COc4cccc(Cl)c4)n3n2)c1
(A) > 2000 nM

(Q) Look up Ki for this compound: COc1ccc(Cc2nnc3ccc(Nc4cccc(C#N)c4)nn23)cc1
(A) < 100 nM

(Q) Look up Ki for this compound: Cc1cc(C)cc(Nc2ccc3nnc(Cc4ccc(O)cc4)n3n2)c1
(A) < 100 nM

(Q) Look up Ki for this compound: Oc1ccc(OCc2nnc3ccc(Nc4cccc(Cl)c4)nn23)cc1
(A) 100 to 2000 nM

(Q) Look up Ki for this compound: Fc1ccc(SCc2nnc3ccc(Nc4cccc(Cl)c4)nn23)c(F)c1
(A) > 2000 nM

(Q) Look up Ki for this compound: NC(=O)c1ccc(Cc2nnc3ccc(Nc4cccc(Cl)c4)nn23)cc1
(A) 100 to 2000 nM

(Q) Look up Ki for this compound: CC(=O)N1CCCC(Nc2ccc3nnc(Cc4ccc(O)cc4)n3n2)C1 (stereo not drawn)
(A) > 2000 nM

(Q) Look up Ki for this compound: Clc1cccc(Nc2ccc3nnc(Cn4cncn4)n3n2)c1
(A) 100 to 2000 nM

(Q) Look up Ki for this compound: C[C@@H](c1ccc(O)cc1)c1nnc2ccc(Nc3ccnc(Cl)c3)nn12
(A) < 100 nM

(Q) Look up Ki for this compound: Clc1cccc(Nc2ccc3nnc(CNc4ccc5c(c4)OCO5)n3n2)c1
(A) 100 to 2000 nM

(Q) Look up Ki for this compound: Oc1ccc(Cc2nnc3ccc(Sc4cccc(Cl)c4)nn23)cc1
(A) < 100 nM

(Q) Look up Ki for this compound: CCN(CC)CC(C)Nc1ccc2nnc(Cc3ccc(O)cc3)n2n1 (stereo not drawn)
(A) > 2000 nM

(Q) Look up Ki for this compound: COc1ccc(Cc2nnc3ccc(Nc4ccc(F)c(Cl)c4)nn23)cc1
(A) < 100 nM
